Hello, the source for this data is the kinase profiling compilation of Christmann-Franck et al. (2016), in case you need it.

- Subject Of Test: YES1 (human) (UniProt P07947)
- Sequence (P07947 whole entry, looked up): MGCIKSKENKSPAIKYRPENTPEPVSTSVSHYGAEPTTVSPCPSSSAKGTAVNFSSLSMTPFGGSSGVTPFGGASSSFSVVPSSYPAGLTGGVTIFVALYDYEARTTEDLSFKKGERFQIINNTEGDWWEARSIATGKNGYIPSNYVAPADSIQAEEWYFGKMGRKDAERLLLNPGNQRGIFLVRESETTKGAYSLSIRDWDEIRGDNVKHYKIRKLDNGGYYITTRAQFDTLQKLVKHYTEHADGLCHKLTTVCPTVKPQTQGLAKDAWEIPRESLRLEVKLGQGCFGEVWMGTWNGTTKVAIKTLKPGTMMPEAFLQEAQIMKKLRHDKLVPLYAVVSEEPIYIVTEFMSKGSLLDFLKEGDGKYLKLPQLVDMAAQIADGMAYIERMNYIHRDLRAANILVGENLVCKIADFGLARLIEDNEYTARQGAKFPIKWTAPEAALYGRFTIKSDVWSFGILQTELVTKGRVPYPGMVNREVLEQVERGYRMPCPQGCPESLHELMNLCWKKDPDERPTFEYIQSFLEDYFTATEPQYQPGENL
- Run Description: KINOMEscan competition binding
- Measurement Parameters: compound 10.0 µM
# reported kinase still bound, per cent of control; entries follow
Unit % implied. Number only.

COc1cc2ncn(-c3cc(OCc4ccccc4C(F)(F)F)c(C(N)=O)s3)c2cc1OC 97
CCN(CC)CCCCNc1ncc2cc(-c3cc(OC)cc(OC)c3)c(NC(=O)NC(C)(C)C)nc2n1 100
O=c1cc(N2CCOCC2)oc2c(-c3cccc4c3sc3ccccc34)cccc12 94
C=CC(=O)Nc1cc(-n2c(=O)ccc3cnc4ccc(-c5cn[nH]c5)cc4c32)ccc1C 94
COc1cc(C(=O)N2CCC(N3CCN(C)CC3)CC2)ccc1Nc1ncc2c(n1)N(C)c1ccccc1C(=O)N2C 100
CNC(=O)c1ccc(Nc2cc(Nc3ccccc3S(=O)(=O)C(C)C)c3cc[nH]c3n2)nc1 1.6
CCN1CCN(C(=O)Cc2ccc(Nc3ncc(F)c(Nc4ccc(C(=O)Nc5ccccc5Cl)cc4)n3)cc2)CC1 60
CS(=O)(=O)N1CCN(Cc2cc3nc(-c4cccc5[nH]ncc45)nc(N4CCOCC4)c3s2)CC1 100

kinase still bound, per cent of control measured on COc1cc(N2CCN(C)CC2)ccc1Nc1ncc2c(n1)N(C)c1ccccc1C(=O)N2C = 100

kinase still bound, per cent of control measured on O=C1NC(=O)/C(=C/c2ccc3nccc(-c4ccncc4)c3c2)S1 = 84

kinase still bound, per cent of control measured on CNC(=O)c1cc(Oc2ccc(NC(=O)Nc3ccc(Cl)c(C(F)(F)F)c3)cc2)ccn1 = 69

kinase still bound, per cent of control measured on N#CCNC(=O)c1ccc(-c2ccnc(Nc3ccc(N4CCOCC4)cc3)n2)cc1 = 91

kinase still bound, per cent of control measured on NC(=O)Nc1cc(-c2cccc(F)c2)sc1C(=O)N[C@@H]1CCCNC1 = 0.2

###

- Subject Of Test: CDKL5 (human)
- Run Description: KINOMEscan competition binding
- Measurement Parameters: compound 10.0 µM
Criterion: kinase still bound, per cent of control strictly less than 60%. Met: fulfilled. Not met: not fulfilled.

CS(=O)(=O)N1CCN(Cc2cc3nc(-c4cccc5[nH]ncc45)nc(N4CCOCC4)c3s2)CC1 not fulfilled
C[C@@H](Oc1cc(-c2cnn(C3CCNCC3)c2)cnc1N)c1c(Cl)ccc(F)c1Cl fulfilled
O=C(Nc1cccc(Nc2ncc(Br)c(NCCc3cnc[nH]3)n2)c1)N1CCCC1 fulfilled
NC(=O)Nc1cc(-c2cccc(F)c2)sc1C(=O)N[C@@H]1CCCNC1 not fulfilled
N#CCNC(=O)c1ccc(-c2ccnc(Nc3ccc(N4CCOCC4)cc3)n2)cc1 not fulfilled
COc1cc(N2CCN(C)CC2)ccc1Nc1ncc2c(n1)N(C)c1ccccc1C(=O)N2C not fulfilled
O=C1NC(=O)/C(=C/c2ccc3nccc(-c4ccncc4)c3c2)S1 not fulfilled
COCC(=O)NC/C=C/c1ccc2ncnc(Nc3ccc(Oc4ccc(C)nc4)c(C)c3)c2c1 not fulfilled

Would you kindly look at the next entry?
Query :: I wonder whether CNC(=O)c1cc(Oc2ccc(NC(=O)Nc3ccc(Cl)c(C(F)(F)F)c3)cc2)ccn1 has kinase still bound, per cent of control below 60%. Can you tell?
Result :: fulfilled

###

- Subject Of Test: ACVR1B (human) (UniProt P36896)
- Sequence (P36896 whole entry, looked up): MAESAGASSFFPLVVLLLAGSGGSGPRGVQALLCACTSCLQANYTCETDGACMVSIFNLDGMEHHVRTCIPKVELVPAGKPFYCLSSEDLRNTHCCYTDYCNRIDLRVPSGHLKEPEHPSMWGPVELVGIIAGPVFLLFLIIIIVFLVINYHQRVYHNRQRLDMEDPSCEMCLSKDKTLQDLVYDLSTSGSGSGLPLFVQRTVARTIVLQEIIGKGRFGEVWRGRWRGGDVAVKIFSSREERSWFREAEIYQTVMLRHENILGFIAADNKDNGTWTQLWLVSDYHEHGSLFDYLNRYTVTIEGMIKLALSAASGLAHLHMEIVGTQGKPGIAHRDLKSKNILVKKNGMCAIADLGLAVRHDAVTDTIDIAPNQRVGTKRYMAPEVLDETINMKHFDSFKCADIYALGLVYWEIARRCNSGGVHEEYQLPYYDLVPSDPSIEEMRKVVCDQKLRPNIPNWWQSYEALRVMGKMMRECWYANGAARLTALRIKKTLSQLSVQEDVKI
- Run Description: KINOMEscan competition binding
- Measurement Parameters: compound 10.0 µM
Criterion: kinase still bound, per cent of control strictly less than 90%. Met: MET. Not met: NOT MET.

Query :: I wonder whether CNC(=O)c1ccc(Nc2cc(Nc3ccccc3S(=O)(=O)C(C)C)c3cc[nH]c3n2)nc1 has kinase still bound, per cent of control below 90%. Can you tell?
Result :: NOT MET

Query :: I wonder whether COc1cc(C(=O)N2CCC(N3CCN(C)CC3)CC2)ccc1Nc1ncc2c(n1)N(C)c1ccccc1C(=O)N2C has kinase still bound, per cent of control below 90%. Can you tell?
Result :: NOT MET

###

- Subject Of Test: CSNK1D (human)
- Run Description: KINOMEscan competition binding
- Measurement Parameters: compound 10.0 µM
Quantity Name: kinase still bound, per cent of control (%)
Unit % implied. Number only.

Examples from the recorded data:
COc1cc2ncnc(-n3nc(-c4ccccn4)nc3N)c2cc1OC 2.8
C[C@@H](Oc1cc(-c2cnn(C3CCNCC3)c2)cnc1N)c1c(Cl)ccc(F)c1Cl 100

Okay, next one:
kinase still bound, per cent of control measured on O=c1cc(N2CCOCC2)oc2c(-c3cccc4c3sc3ccccc34)cccc12 = 89

###

- Subject Of Test: DAPK2 (human)
- Run Description: KINOMEscan competition binding
- Measurement Parameters: compound 10.0 µM
Quantity Name: kinase still bound, per cent of control (%)
Unit % implied. Number only.

Examples from the recorded data:
CCN(CC)CCCCNc1ncc2c(n1)N(C)C(=O)N(c1c(Cl)c(OC)cc(OC)c1Cl)C2 100
CS(=O)(=O)N1CCN(Cc2cc3nc(-c4cccc5[nH]ncc45)nc(N4CCOCC4)c3s2)CC1 100

kinase still bound, per cent of control measured on CN(C)C/C=C/C(=O)Nc1ccc(C(=O)Nc2cccc(Nc3nccc(-c4cccnc4)n3)c2)cc1 = 81

kinase still bound, per cent of control measured on O=C1NC(=O)/C(=C/c2ccc3nccc(-c4ccncc4)c3c2)S1 = 1.7

kinase still bound, per cent of control measured on C=CC(=O)Nc1ccc(CN(C(=O)Nc2c(Cl)c(OC)cc(OC)c2Cl)c2cc(Nc3ccc(N4CCN(C)CC4)cc3)ncn2)cc1 = 100

kinase still bound, per cent of control measured on NC(=O)Nc1cc(-c2cccc(F)c2)sc1C(=O)N[C@@H]1CCCNC1 = 5.4

kinase still bound, per cent of control measured on COc1cc2ncnc(-n3nc(-c4ccccn4)nc3N)c2cc1OC = 12

kinase still bound, per cent of control measured on COc1ccc(N(C(=O)Oc2c(C)cccc2C)c2ccnc(Nc3ccc(N4CCN(C)CC4)cc3)n2)c(OC)c1 = 100

kinase still bound, per cent of control measured on O=C(Nc1cccc(Nc2ncc(Br)c(NCCc3cnc[nH]3)n2)c1)N1CCCC1 = 22

###

- Subject Of Test: EPHB3 (human)
- Run Description: KINOMEscan competition binding
- Measurement Parameters: compound 10.0 µM
# reported kinase still bound, per cent of control; entries follow
Unit % implied. Number only.

Examples from the recorded data:
C[C@@H](Oc1cc(-c2cnn(C3CCNCC3)c2)cnc1N)c1c(Cl)ccc(F)c1Cl 100
Cc1n[nH]c2ccc(-c3cncc(OC[C@@H](N)Cc4c[nH]c5ccccc45)c3)cc12 100

Okay, next one:
kinase still bound, per cent of control measured on CCN1CCN(C(=O)Cc2ccc(Nc3ncc(F)c(Nc4ccc(C(=O)Nc5ccccc5Cl)cc4)n3)cc2)CC1 = 78

###

- Subject Of Test: EPHB6 (human) (UniProt O15197)
- Sequence (O15197 whole entry, looked up): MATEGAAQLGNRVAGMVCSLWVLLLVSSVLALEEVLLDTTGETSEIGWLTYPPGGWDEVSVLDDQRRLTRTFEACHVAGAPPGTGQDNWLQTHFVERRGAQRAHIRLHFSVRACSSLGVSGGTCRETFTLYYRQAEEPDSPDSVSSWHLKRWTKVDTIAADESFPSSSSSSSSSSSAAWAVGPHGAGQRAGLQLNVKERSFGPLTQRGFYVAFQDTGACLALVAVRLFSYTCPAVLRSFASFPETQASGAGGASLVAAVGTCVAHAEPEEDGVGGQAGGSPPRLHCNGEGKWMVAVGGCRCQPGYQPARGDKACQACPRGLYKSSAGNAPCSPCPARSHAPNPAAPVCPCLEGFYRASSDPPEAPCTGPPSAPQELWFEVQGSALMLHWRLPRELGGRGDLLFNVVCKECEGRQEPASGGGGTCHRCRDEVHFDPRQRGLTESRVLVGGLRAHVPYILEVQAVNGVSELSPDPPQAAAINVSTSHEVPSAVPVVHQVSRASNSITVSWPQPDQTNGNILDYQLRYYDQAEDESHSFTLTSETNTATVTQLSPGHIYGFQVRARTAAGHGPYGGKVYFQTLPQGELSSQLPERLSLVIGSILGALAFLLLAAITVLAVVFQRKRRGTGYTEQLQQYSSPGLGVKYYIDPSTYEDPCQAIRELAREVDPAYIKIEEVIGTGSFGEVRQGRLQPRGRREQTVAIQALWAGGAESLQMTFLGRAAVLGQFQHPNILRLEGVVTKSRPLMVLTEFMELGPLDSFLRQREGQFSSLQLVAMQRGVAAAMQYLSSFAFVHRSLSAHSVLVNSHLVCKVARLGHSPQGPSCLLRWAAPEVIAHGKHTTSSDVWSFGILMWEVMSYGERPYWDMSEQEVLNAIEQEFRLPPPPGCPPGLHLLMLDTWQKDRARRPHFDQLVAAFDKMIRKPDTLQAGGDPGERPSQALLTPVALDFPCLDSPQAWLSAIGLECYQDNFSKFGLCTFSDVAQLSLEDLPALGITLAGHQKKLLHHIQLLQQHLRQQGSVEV
- Run Description: KINOMEscan competition binding
- Measurement Parameters: compound 10.0 µM
Criterion: kinase still bound, per cent of control strictly less than 30%. Met: 1. Not met: -1.

COc1cc2ncnc(-n3nc(-c4ccccn4)nc3N)c2cc1OC 1
CS(=O)(=O)N1CCN(Cc2cc3nc(-c4cccc5[nH]ncc45)nc(N4CCOCC4)c3s2)CC1 -1
C=CC(=O)Nc1cc(-n2c(=O)ccc3cnc4ccc(-c5cn[nH]c5)cc4c32)ccc1C -1
CCN1CCN(C(=O)Cc2ccc(Nc3ncc(F)c(Nc4ccc(C(=O)Nc5ccccc5Cl)cc4)n3)cc2)CC1 1
O=C1NC(=O)/C(=C/c2ccc3nccc(-c4ccncc4)c3c2)S1 -1

Would you kindly look at the next entry?
Query :: I wonder whether COc1cc2ncn(-c3cc(OCc4ccccc4C(F)(F)F)c(C(N)=O)s3)c2cc1OC has kinase still bound, per cent of control below 30%. Can you tell?
Result :: 1

###

# reported kinase still bound, per cent of control; entries follow
- Subject Of Test: UniProt:O15111
- Sequence (O15111 whole entry, looked up): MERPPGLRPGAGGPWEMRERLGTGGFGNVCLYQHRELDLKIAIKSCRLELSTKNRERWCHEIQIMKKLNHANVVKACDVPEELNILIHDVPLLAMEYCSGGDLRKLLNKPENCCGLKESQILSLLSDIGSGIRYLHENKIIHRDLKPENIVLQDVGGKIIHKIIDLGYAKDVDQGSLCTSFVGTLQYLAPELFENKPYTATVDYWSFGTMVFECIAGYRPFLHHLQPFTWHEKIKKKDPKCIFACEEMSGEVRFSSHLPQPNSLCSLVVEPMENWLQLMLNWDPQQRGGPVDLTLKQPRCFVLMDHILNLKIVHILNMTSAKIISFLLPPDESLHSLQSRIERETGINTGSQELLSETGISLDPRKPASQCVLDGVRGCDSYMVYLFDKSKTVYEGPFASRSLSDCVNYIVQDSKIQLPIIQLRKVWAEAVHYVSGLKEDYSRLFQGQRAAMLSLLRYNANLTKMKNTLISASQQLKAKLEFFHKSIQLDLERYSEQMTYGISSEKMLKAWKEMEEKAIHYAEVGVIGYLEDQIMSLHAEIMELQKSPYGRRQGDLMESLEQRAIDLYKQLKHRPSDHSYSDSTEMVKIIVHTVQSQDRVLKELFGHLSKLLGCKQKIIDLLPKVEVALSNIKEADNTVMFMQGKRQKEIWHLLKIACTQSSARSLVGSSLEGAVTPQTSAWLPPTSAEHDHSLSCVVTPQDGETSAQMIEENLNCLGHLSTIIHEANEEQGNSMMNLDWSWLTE
- Run Description: KINOMEscan competition binding
- Measurement Parameters: compound 10.0 µM
Unit % implied. Number only.

CNC(=O)c1cc(Oc2ccc(NC(=O)Nc3ccc(Cl)c(C(F)(F)F)c3)cc2)ccn1 81
O=C1NC(=O)/C(=C/c2ccc3nccc(-c4ccncc4)c3c2)S1 44

kinase still bound, per cent of control measured on CN(C)C/C=C/C(=O)Nc1ccc(C(=O)Nc2cccc(Nc3nccc(-c4cccnc4)n3)c2)cc1 = 54

###

# reported kinase still bound, per cent of control; entries follow
- Subject Of Test: RIPK2 (human) (UniProt O43353)
- Sequence (O43353 whole entry, looked up): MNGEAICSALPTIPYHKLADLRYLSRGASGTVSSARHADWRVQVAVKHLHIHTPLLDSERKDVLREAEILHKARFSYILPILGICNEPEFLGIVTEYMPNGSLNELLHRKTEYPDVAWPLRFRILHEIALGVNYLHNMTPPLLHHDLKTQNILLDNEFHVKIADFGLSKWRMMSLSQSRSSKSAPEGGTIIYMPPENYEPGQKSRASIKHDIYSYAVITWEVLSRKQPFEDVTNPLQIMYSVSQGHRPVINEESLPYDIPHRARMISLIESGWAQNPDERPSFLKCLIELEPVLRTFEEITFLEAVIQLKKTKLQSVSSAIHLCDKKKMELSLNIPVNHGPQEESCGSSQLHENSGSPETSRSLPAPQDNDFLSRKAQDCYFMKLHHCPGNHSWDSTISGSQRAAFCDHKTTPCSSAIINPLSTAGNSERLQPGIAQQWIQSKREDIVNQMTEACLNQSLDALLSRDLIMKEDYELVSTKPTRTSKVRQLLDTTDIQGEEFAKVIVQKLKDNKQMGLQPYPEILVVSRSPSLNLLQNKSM
- Run Description: KINOMEscan competition binding
- Measurement Parameters: compound 10.0 µM
Unit % implied. Number only.

CCN(CC)CCCCNc1ncc2cc(-c3cc(OC)cc(OC)c3)c(NC(=O)NC(C)(C)C)nc2n1 100
C[C@@H](Oc1cc(-c2cnn(C3CCNCC3)c2)cnc1N)c1c(Cl)ccc(F)c1Cl 11

kinase still bound, per cent of control measured on CNC(=O)c1cc(Oc2ccc(NC(=O)Nc3ccc(Cl)c(C(F)(F)F)c3)cc2)ccn1 = 18

kinase still bound, per cent of control measured on C=CC(=O)Nc1cc(-n2c(=O)ccc3cnc4ccc(-c5cn[nH]c5)cc4c32)ccc1C = 56

kinase still bound, per cent of control measured on O=c1cc(N2CCOCC2)oc2c(-c3cccc4c3sc3ccccc34)cccc12 = 91

kinase still bound, per cent of control measured on COCC(=O)NC/C=C/c1ccc2ncnc(Nc3ccc(Oc4ccc(C)nc4)c(C)c3)c2c1 = 26

kinase still bound, per cent of control measured on COc1ccc(N(C(=O)Oc2c(C)cccc2C)c2ccnc(Nc3ccc(N4CCN(C)CC4)cc3)n2)c(OC)c1 = 0

kinase still bound, per cent of control measured on CNC(=O)c1ccc(Nc2cc(Nc3ccccc3S(=O)(=O)C(C)C)c3cc[nH]c3n2)nc1 = 100

kinase still bound, per cent of control measured on COc1cc2ncn(-c3cc(OCc4ccccc4C(F)(F)F)c(C(N)=O)s3)c2cc1OC = 41
